- Tested on: Plasmodium berghei
- test_name: Screen against P. berghei liver stage (PbLuc), transformed with Luciferase, at 10uM
- Format: functional, HepG2
- recorded_conditions: tested at 10 uM
Out of some 69,000 compounds screened, about 8,600 (12%) showed an effect of 50% or more. The sample holds strong results, similar compounds and a random draw of the others, so the mix is not that of the screen.

compound	INHIBITION
CN(Cc1cnc(C(C)(C)C)nc1)Cc1nc2ccc(F)cc2[nH]1	-0.18%
CN(Cc1cc(=O)c(O)co1)C1CCN(c2ccc(F)cc2)CC1	53.5%
Cc1nccc([C@H]2C[C@@H]3CCN(S(C)(=O)=O)C[C@H]3O2)n1	33.2%
CO[C@@]1(C)C[C@@H](O)C12CCN(C(=O)CCn1c(C)cccc1=O)CC2	46.4%
C[C@@H]1CN(C(=O)c2nc3sccn3c2-c2ncc[nH]2)C[C@H](C)O1	11.3%
CN(Cc1cc(=O)c(O)co1)C1CCCN(c2ccccc2)C1 (stereo not given)	7.93%
CN1CCCN(C(=O)c2nc3sccn3c2-c2ncc[nH]2)CC1	-16%
CC(C)(C)c1ncc(C(=O)NCc2cccc(C(=O)N3CCCC3)c2)s1	-12.9%
CCN(CC)Cc1ccc(C(=O)N2CCCC2Cn2cc(C)cn2)o1 (stereo not given)	-4.3%
CC(C)(C)CN1CCCC2(CCN(C(=O)c3cn[nH]c3)C2)C1 (stereo not given)	68%
